Property: Percent Effect; scope: individual compounds
test system: Wolbachia pipientis; assay: Anti-Wolbachia Cell-Based Screen; format: functional; parameters: scale not given: in the data most compounds retested in dose-response had high values; details: 5 µM
The campaign covered roughly 48,000 compounds. About 13,000 (27%) showed an effect of 50% or more. The list shows a part of the results.
Mention the unit after the number when you answer.

{"compound": "COc1cccc(NC(=O)N(CCC(F)(F)F)C[C@H](O)CO)c1", "Percent Effect": "-14.76%"}

For the compound CCc1ccc(OCC(O)CN2CCN(S(C)(=O)=O)CC2)cc1 (stereo not drawn) , the measured Percent Effect on Wolbachia pipientis was 13.83%

The compound `Cc1ccc(-c2ncc(C(=O)N3CCC[C@H](N)C3)c(O)n2)cc1` , when measured on Wolbachia pipientis, yielded Percent Effect of 4.793%
